Test system: hemoglobin
test.name: Hemoglobin levels in mice on day 8 after oral gavage on day 1, 3 and 5
Format: in vivo
condition: 20 mg/kg oral gavage on day 1, 3 and 5, measured day 8
endpoint.name: Hemoglobin 20 mg/kg cmpd (g/dL)

[[record]]
smiles_representation = "Cc1nc(C(=O)NCC(=O)O)c(O)c2ccc(Cl)cc12"
readout_units = "g/dL"
recorded_number = 14.15

[[record]]
smiles_representation = "N#Cc1nc(C(=O)NCC(=O)O)c(O)c2sccc12"
readout_units = "g/dL"
recorded_number = 13.53

[[record]]
smiles_representation = "COc1ccc(Oc2ccc3c(O)c(C(=O)NCC(=O)O)ncc3c2)cc1"
readout_units = "g/dL"
recorded_number = 14.29

[[record]]
smiles_representation = "Cc1nc(C(=O)NCC(=O)O)c(O)c2cccc(Oc3ccc(F)cc3)c12"
readout_units = "g/dL"
recorded_number = 14.85

[[record]]
smiles_representation = "Cc1nc(C(=O)NCC(=O)O)c(O)c2cccc(Oc3ccccc3)c12"
readout_units = "g/dL"
recorded_number = 13.41

[[record]]
smiles_representation = "O=C(O)CNC(=O)c1nc(Cl)c2ccccc2c1O"
readout_units = "g/dL"
recorded_number = 12.92


====

Test system: circulating EPO
test.name: Circulating EPO levels in mice after single intravenous or oral gavage dose
Format: in vivo
condition: single intravenous dose (dose of the table not stated; 2-60 mg/kg tested), 6 hours after administration
List of EPO Intravenous values.
endpoint.name: EPO Intravenous (mIU/ml)

[[record]]
smiles_representation = "COc1ccc(Oc2ccc3c(O)c(C(=O)NCC(=O)O)ncc3c2)cc1"
recorded_number = 1663

[[record]]
smiles_representation = "Cc1nc(C(=O)NCC(=O)O)c(O)c2cccc(Oc3ccccc3)c12"
recorded_number = 2976

[[record]]
smiles_representation = "O=C(O)CNC(=O)c1nc(Cl)c2ccccc2c1O"
recorded_number = 1309

[[record]]
smiles_representation = "Cc1nc(C(=O)NCC(=O)O)c(O)c2cccc(Oc3ccc(F)cc3)c12"
recorded_number = 10969

[[record]]
smiles_representation = "Cc1nc(C(=O)NCC(=O)O)c(O)c2ccc(Cl)cc12"
recorded_number = 3967

[[record]]
smiles_representation = "O=C(O)CNC(=O)c1ncc2c(Oc3ccccc3)cccc2c1O"
recorded_number = 5473

[[record]]
smiles_representation = "N#Cc1nc(C(=O)NCC(=O)O)c(O)c2sccc12"
recorded_number = 1242


====

List of Hemoglobin 2 mg/kg cmpd values.
Tested on: hemoglobin
test.name: Hemoglobin levels in mice on day 8 after oral gavage on day 1, 3 and 5
Assay type: in vivo
condition: 2 mg/kg oral gavage on day 1, 3 and 5, measured day 8
endpoint.name: Hemoglobin 2 mg/kg cmpd (g/dL)

[[record]]
smiles_representation = "N#Cc1nc(C(=O)NCC(=O)O)c(O)c2sccc12"
recorded_number = 12.67

[[record]]
smiles_representation = "Cc1nc(C(=O)NCC(=O)O)c(O)c2cccc(Oc3ccccc3)c12"
recorded_number = 12.23

[[record]]
smiles_representation = "Cc1nc(C(=O)NCC(=O)O)c(O)c2cccc(Oc3ccc(F)cc3)c12"
recorded_number = 14.39

[[record]]
smiles_representation = "O=C(O)CNC(=O)c1ncc2c(Oc3ccccc3)cccc2c1O"
recorded_number = 14.1


====

Test system: circulating EPO
test.name: Circulating EPO levels in mice after single intravenous or oral gavage dose
Type: in vivo
condition: single oral gavage dose (dose of the table not stated; 2-60 mg/kg tested), 6 hours after administration
endpoint.name: EPO Oral Gavage (mIU/ml)

[[record]]
smiles_representation = "Cc1nc(C(=O)NCC(=O)O)c(O)c2cccc(Oc3ccccc3)c12"
recorded_number = 744

[[record]]
smiles_representation = "O=C(O)CNC(=O)c1ncc2c(Oc3ccccc3)cccc2c1O"
recorded_number = 1201

[[record]]
smiles_representation = "N#Cc1nc(C(=O)NCC(=O)O)c(O)c2sccc12"
recorded_number = 608

[[record]]
smiles_representation = "Cc1nc(C(=O)NCC(=O)O)c(O)c2cccc(Oc3ccc(F)cc3)c12"
recorded_number = 2546

